For each record, write down the corresponding T ½.
Molecular target: T1, Human BCMA (human, UniProt Q02223 1-54, limits assumed)
T1 construct: Soluble analyte in SPR; construct not described; also called huBCMA; B-cell maturation antigen
T1 sequence (looked up): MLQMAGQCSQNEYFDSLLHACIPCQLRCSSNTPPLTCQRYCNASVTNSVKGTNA
Assay: SPR, IgG immobilised, 25 C
Could you write the number and then its unit?

Each binder below has a recorded value; state its T ½.
1. L1.LGF/L3.PY/H3.AQ (antibody, V domains shown, IgG) VH: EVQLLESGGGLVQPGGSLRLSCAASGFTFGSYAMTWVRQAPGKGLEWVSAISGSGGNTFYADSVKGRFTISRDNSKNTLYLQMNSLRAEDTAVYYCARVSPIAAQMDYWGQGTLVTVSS VL: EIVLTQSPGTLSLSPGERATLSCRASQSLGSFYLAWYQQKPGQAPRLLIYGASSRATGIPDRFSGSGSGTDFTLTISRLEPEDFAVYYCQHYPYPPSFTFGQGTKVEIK
2. L1.GDF/L3.KW/H3.AQ (antibody, V domains shown, IgG) VH: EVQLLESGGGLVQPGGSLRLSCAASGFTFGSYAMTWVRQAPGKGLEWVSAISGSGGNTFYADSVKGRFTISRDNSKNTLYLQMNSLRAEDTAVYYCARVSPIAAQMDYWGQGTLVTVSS VL: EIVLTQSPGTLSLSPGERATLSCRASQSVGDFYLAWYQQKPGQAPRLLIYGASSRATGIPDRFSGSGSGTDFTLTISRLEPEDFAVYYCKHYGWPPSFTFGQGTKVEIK

1. 13 min
2. 3.32 min

Bench note: what T ½ did L1.GDF/L3.NY/H3.AP (antibody, V domains shown, IgG) VH: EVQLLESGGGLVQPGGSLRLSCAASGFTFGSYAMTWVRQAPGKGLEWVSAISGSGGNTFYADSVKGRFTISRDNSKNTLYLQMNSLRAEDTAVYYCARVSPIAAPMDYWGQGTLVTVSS VL: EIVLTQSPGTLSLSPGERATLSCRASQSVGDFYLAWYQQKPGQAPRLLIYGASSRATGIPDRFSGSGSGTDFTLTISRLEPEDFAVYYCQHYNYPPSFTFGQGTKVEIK show?
8.21 min
